- experimental-system: JAK3 (Homo sapiens)
- Sequence (P52333 whole entry): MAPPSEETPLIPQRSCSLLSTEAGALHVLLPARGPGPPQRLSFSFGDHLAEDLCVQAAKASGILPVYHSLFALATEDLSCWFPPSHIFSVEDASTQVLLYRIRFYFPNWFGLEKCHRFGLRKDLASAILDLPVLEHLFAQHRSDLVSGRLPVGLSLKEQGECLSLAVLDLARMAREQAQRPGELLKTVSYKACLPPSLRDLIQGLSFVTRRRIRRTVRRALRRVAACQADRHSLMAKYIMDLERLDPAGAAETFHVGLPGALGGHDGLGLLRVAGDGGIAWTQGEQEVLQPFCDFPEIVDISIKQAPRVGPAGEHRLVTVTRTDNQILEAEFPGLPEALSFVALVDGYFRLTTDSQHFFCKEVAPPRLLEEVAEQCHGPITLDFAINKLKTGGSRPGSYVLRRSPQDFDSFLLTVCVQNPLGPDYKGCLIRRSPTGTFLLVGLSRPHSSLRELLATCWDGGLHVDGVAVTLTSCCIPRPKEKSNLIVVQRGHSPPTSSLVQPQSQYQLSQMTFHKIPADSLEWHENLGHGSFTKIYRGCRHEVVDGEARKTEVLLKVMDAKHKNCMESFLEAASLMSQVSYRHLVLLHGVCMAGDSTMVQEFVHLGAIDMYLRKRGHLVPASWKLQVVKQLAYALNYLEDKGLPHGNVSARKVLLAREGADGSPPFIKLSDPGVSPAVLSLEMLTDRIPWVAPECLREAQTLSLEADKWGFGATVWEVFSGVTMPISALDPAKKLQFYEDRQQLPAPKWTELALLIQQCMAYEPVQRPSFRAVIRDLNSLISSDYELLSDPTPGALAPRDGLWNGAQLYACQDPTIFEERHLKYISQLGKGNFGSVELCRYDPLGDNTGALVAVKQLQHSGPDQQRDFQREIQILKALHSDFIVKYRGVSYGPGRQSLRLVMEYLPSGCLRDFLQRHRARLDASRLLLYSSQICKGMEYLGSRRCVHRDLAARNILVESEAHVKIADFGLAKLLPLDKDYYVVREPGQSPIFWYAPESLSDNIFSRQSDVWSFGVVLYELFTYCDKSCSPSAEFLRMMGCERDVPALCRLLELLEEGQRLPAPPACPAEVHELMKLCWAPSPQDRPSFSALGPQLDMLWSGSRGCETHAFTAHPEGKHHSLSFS
- experimental-protocol: Biochemical JAK3 kinase assay (LanthaScreen)
- Set-up: GST; purchased Life Technologies
- recorded-conditions: selectivity: difference of pKi JAK3 and pKi JAK1
reported-endpoint: JAK3 (pKi)-JAK1 (pKi)

# annotated cases, reported JAK3 (pKi)-JAK1 (pKi) shown
input: Give the measured JAK3 (pKi)-JAK1 (pKi) for CCC1(COc2cc(-c3ccc(O)c(Cl)c3)nc3[nH]ncc23)CN(C(=O)/C=C/CN(C)C)C1
output: B (a value of 2.3 to 3)

input: Assign JAK3 (pKi)-JAK1 (pKi) to the following record: C=CC(=O)N1CC(C#N)(COc2cc(-c3ccc(O)cc3)cc3[nH]ncc23)C1
output: B (a value of 2.3 to 3)

input: Answer with the recorded JAK3 (pKi)-JAK1 (pKi) of CN(C)C/C=C/C(=O)N1CC(COc2cc(-c3ccc(O)c(F)c3F)cc3[nH]ncc23)C1 only.
output: B (a value of 2.3 to 3)

input: Tell us which JAK3 (pKi)-JAK1 (pKi) value is on record for CN(C)C/C=C/C(=O)N1CC[C@H](Oc2cc(-c3ccc(O)cc3)cc3[nH]nc(Cl)c23)C1
output: B (a value of 2.3 to 3)

input: Look up JAK3 (pKi)-JAK1 (pKi) of C=CC(=O)N1CC[C@H](Sc2cc(-c3ccc(O)cc3)cc3[nH]ncc23)C1 and report it.
output: B (a value of 2.3 to 3)

input: Read the entry CN(C)C/C=C/C(=O)N1CC[C@H](Oc2nc(-c3ccc(O)c(F)c3)cc3[nH]ncc23)C1 and write its reported JAK3 (pKi)-JAK1 (pKi).
output: B (a value of 2.3 to 3)

New cases:
input: Name the recorded JAK3 (pKi)-JAK1 (pKi) of the compound listed here: CN(C)C/C=C/C(=O)N1CC(CN(C)c2nc(-c3ccc(O)cc3)cc3[nH]ncc23)C1
output: B (a value of 2.3 to 3)

input: Provide only the value of recorded JAK3 (pKi)-JAK1 (pKi) for CN(C)C/C=C/C(=O)N1CC(F)(COc2nc(-c3ccc(O)cc3)cc3[nH]ncc23)C1
output: B (a value of 2.3 to 3)

input: Name the recorded JAK3 (pKi)-JAK1 (pKi) of the item CSC1CCN(C/C=C/C(=O)N2CC(COc3cc(-c4ccc(O)cc4)cc4[nH]ncc34)C2)CC1 in your answer.
output: B (a value of 2.3 to 3)

* * *

- experimental-system: UniProt:P52333
- experimental-protocol: Biochemical JAK3 kinase assay (LanthaScreen)
- Parameters: GST; purchased Life Technologies
- recorded-conditions: selectivity JAK3 over JAK1, difference of pKi
reported-endpoint: JAK3 (pKi)-JAK1 (pKi)

input: Return JAK3 (pKi)-JAK1 (pKi) for the following compound: C=CC(=O)N1CCC[C@H](Sc2cc(-c3ccc(O)cc3)cc3[nH]ncc23)C1
output: B (a value of 2.3 to 3)

input: Determine its reported JAK3 (pKi)-JAK1 (pKi): C=CC(=O)N1CC2(CC(Oc3nc(-c4ccc(O)cc4)cc4[nH]ncc34)C2)C1
output: B (a value of 2.3 to 3)

input: Return the recorded JAK3 (pKi)-JAK1 (pKi) value; entry: C=CC(=O)N1CC(CSc2cc(-c3ccc(O)cc3)cc3[nH]ncc23)C1
output: B (a value of 2.3 to 3)

* * *

- experimental-system: JAK2 (Homo sapiens, UniProt O60674)
- Construct: GST; purchased Life Technologies
- Sequence (O60674 whole entry): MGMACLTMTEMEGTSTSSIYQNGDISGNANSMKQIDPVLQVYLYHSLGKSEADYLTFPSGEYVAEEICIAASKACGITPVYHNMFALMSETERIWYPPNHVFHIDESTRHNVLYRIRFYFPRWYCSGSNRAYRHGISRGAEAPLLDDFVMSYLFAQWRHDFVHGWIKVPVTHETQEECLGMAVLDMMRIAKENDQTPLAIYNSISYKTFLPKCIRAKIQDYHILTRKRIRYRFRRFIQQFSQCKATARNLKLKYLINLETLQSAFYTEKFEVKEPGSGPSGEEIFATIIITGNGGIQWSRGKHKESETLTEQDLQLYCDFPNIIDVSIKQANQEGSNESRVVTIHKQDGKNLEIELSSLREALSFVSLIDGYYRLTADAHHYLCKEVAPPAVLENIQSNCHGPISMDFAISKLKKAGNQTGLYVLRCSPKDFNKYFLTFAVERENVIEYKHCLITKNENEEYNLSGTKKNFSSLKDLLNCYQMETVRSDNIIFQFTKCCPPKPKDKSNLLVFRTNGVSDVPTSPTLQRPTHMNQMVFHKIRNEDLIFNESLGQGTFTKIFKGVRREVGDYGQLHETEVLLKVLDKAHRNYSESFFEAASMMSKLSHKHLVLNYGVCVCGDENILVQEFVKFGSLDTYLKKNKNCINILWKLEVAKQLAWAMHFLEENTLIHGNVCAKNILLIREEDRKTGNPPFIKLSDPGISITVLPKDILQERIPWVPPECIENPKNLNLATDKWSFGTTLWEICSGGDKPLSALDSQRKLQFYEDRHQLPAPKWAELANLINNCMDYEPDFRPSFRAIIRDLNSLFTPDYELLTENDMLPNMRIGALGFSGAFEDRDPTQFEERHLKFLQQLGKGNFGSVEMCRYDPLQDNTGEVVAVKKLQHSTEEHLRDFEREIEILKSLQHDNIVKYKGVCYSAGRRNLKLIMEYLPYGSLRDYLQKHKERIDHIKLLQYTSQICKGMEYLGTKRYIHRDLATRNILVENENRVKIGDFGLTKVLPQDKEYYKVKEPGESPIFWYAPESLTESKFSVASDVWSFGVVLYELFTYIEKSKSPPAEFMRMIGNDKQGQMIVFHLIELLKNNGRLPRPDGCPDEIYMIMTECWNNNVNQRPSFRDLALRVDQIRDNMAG
- experimental-protocol: Biochemical JAK2 kinase assay (LanthaScreen)
- recorded-conditions: read-out: JAK 2 (pKi) (converted)
Listed here: items and their measured Ki.

Examples with their reported Ki follow.
input: Please give the documented Ki of C=CC(=O)N1CC(COc2nc(-c3ccc(O)c(Cl)c3)nc3[nH]ncc23)C1 [Compound 3-38]
output: > 100 nM

input: Given the compound CN(C)C/C=C/C(=O)N1CC(C#N)(COc2nc(-c3ccc(O)cc3)cc3[nH]ncc23)C1 [Compound 3-102] , write its reported Ki.
output: > 100 nM

input: Give a short answer stating reported Ki for CN(C/C=C/C(=O)N1CC(COc2cc(-c3ccc(O)cc3)cc3[nH]ncc23)C1)C1CCC1 [Compound 3-117] .
output: 10 to 100 nM

Turning to the following compound.
input: Please indicate Ki recorded for C=C(CN(C)C)C(=O)N1CC(COc2nc(-c3ccc(O)cc3)nc3[nH]ncc23)C1 [Compound 3-112]
output: > 100 nM

* * *

Quick reference: Ki of the listed items.
- experimental-system: JAK3 (Homo sapiens)
- experimental-protocol: Biochemical JAK3 kinase assay (LanthaScreen)
- Set-up: GST; purchased Life Technologies
- recorded-conditions: read-out: JAK 3 (pKi) (converted)

input: Please report Ki for the following molecule: CN1CCC[C@@H]1/C=C/C(=O)N1CC(COc2cc(-c3ccc(O)cc3)cc3[nH]ncc23)C1
output: < 0.1 nM

Next:
input: Hello, please tell me recorded Ki for this one: C=CC(=O)N1CCC[C@@H](C(=O)Nc2cc(-c3ccc(O)cc3)cc3[nH]ncc23)C1
output: < 0.1 nM

input: Given the molecule C=CC(=O)N1CC(COc2cc(-c3ccc(O)c(C)c3)cc3[nH]ncc23)C1 , write its reported Ki.
output: < 0.1 nM

input: Report Ki, nothing else, for this molecule: C=CC(=O)N1CC(F)(COc2nc(-c3ccc(O)cc3)cc3[nH]ncc23)C1
output: < 0.1 nM

input: Give Ki for C=CC(=O)N1CC[C@@H](Oc2cc(-c3ccc(O)cc3)cc3[nH]ncc23)C[C@H]1C
output: 0.1 to 1 nM

input: Give recorded Ki. C=CC(=O)N1CC(COc2nc(-c3ccc(O)c(Cl)c3)nc3[nH]ncc23)C1
output: < 0.1 nM

* * *

- Test system: IL-2 stimulated pSTAT5 in Tall-1 T cells
- experimental-protocol: Cellular JAK3 potency assay: inhibition of IL-2 stimulated pSTAT5 in Tall-1 T cells
- Assay type: cell-based, human
- recorded-conditions: Homo sapiens, TALL-1, IL-2 stimulated pSTAT5 in Tall-1 T cells; read-out: Tall-1 (pIC50) (converted)
reported-endpoint: IC50

Examples from the recorded data:
input: Report measured IC50; entry is C=CC(=O)N1CC(F)(COc2cc(-c3ccc(O)c(F)c3)cc3[nH]ncc23)C1
output: < 31.6 nM

input: Please indicate IC50 recorded for CN(C)C/C=C/C(=O)N1CC(COc2cc(-c3ccc(O)c(F)c3)cc3[nH]ncc23)C1
output: 31.6 to 200 nM

input: In one line, give reported IC50 of the entry CN(C/C=C/C(=O)N1CC(COc2cc(-c3ccc(O)cc3)cc3[nH]ncc23)C1)C(C)(C)C .
output: 31.6 to 200 nM

input: Note IC50 for the compound shown: O=C(/C=C/CN1CCC1)N1CC(COc2cc(-c3ccc(O)cc3)cc3[nH]ncc23)C1
output: 200 to 1000 nM

Further cases:
input: Please give the documented IC50 of C=CC(=O)N1CC[C@H](Oc2cc(-c3ccc(O)c(Cl)c3)cc3[nH]nc(C)c23)C1
output: < 31.6 nM

input: Output measured IC50 for this item: CN(C)C/C=C/C(=O)N1CC(COc2cc(-c3ccc(O)c(Cl)c3)cc3[nH]ncc23)C1
output: 31.6 to 200 nM

* * *

Items are presented alongside their recorded IC50.
- Tested on: IL-2 stimulated pSTAT5 in Tall-1 T cells
- experimental-protocol: Cellular JAK3 potency assay: inhibition of IL-2 stimulated pSTAT5 in Tall-1 T cells
- Assay type: cell-based, human
- recorded-conditions: Homo sapiens, TALL-1, IL-2 stimulated pSTAT5 in Tall-1 T cells; read-out: Tall-1 (pIC50) (converted)

The cases that follow already have their IC50 on record.
input: Please report IC50 with IL-2 stimulated pSTAT5 in Tall-1 T cells for item C=CC(=O)N1CC(COc2cc(-c3ccc(O)c(F)c3)nc3[nH]ncc23)C1 [Compound 3-87] .
output: 31.6 to 200 nM

input: Fill in IC50 for C=CC(=O)N1CC[C@H](Oc2cc(-c3ccc(O)cc3)cc3[nH]nc(OC)c23)C1 [Compound 1-44] tested with IL-2 stimulated pSTAT5 in Tall-1 T cells.
output: < 31.6 nM

input: Give measured IC50 for C=CC(=O)N1CC[C@H](Oc2nc(-c3ccc(O)cc3)nc3[nH]ncc23)C1 [Compound 1-6] (IL-2 stimulated pSTAT5 in Tall-1 T cells).
output: 200 to 1000 nM

input: Lab note: record IC50 of C=CC(=O)N1CC(C(C)(C)Oc2cc(-c3ccc(O)cc3)nc3[nH]ncc23)C1 [Compound 20] tested on IL-2 stimulated pSTAT5 in Tall-1 T cells.
output: < 31.6 nM

input: Tell me its IC50 on IL-2 stimulated pSTAT5 in Tall-1 T cells: C=CC(=O)N1CC[C@H](Sc2cc(-c3ccc(O)cc3)cc3[nH]ncc23)C1 [Compound 12]
output: 31.6 to 200 nM

More entries:
input: GET IC50 where system = IL-2 stimulated pSTAT5 in Tall-1 T cells and item = CN(C)C/C=C/C(=O)N1CC(C#N)(COc2cc(-c3ccc(O)c(F)c3)cc3[nH]ncc23)C1 [Compound 8]
output: < 31.6 nM

input: For IL-2 stimulated pSTAT5 in Tall-1 T cells, give the measured IC50 of the entry CN(C)C/C=C/C(=O)N1CCC(C)(Oc2cc(-c3ccc(O)cc3)cc3[nH]ncc23)CC1 [Compound 9]
output: 31.6 to 200 nM

input: Give IL-2 stimulated pSTAT5 in Tall-1 T cells IC50 for the following molecule: C=CC(=O)N1CC(COc2cc(-c3ccc(O)cc3)nc3[nH]ncc23)C1 [Compound 10]
output: 31.6 to 200 nM

These measurements were taken from patent US10392368B2.
